B1: TPR t1 (parent)
chain: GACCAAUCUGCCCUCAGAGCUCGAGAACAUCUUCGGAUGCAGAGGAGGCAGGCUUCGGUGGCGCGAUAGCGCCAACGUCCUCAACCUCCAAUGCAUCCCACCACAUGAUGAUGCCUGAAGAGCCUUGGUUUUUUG

- Variants of: B1
- protocol description: polymerase ribozyme fitness, log enrichment relative to wild type (log ratio); higher = more active; in vitro selection for triplet polymerase activity
recorded metric: polymerase ribozyme fitness (log ratio)
Simply state the number, no unit and no words.

Exercise: Report measured polymerase ribozyme fitness (log ratio); entry is C97U C101U U116G A118G
Solution: -4.15

Exercise: Report measured polymerase ribozyme fitness (log ratio); entry is C4G G71U
Solution: -1.92

Exercise: Report measured polymerase ribozyme fitness (log ratio); entry is G17C C80U A83U C115G
Solution: -2.85

Exercise: Report measured polymerase ribozyme fitness (log ratio); entry is U32A G57U
Solution: -4.02

Exercise: Report measured polymerase ribozyme fitness (log ratio); entry is A5U G39U G45U C82A C123A
Solution: -2.8

Exercise: Report measured polymerase ribozyme fitness (log ratio); entry is U81A A91G U92G
Solution: -4.76

Exercise: Report measured polymerase ribozyme fitness (log ratio); entry is C56A G60A G69C
Solution: -3.21

Exercise: Report measured polymerase ribozyme fitness (log ratio); entry is C70A G128C
Solution: -4.69

Exercise: Report measured polymerase ribozyme fitness (log ratio); entry is C56A U78C C98A G122A C123U U132A
Solution: -5.25

Exercise: Report measured polymerase ribozyme fitness (log ratio); entry is G71C A74U C89U G110C U125A U129A
Solution: -7.38

Exercise: Report measured polymerase ribozyme fitness (log ratio); entry is G60U U78C
Solution: -0.915

Exercise: Report measured polymerase ribozyme fitness (log ratio); entry is C8A U21C G58C C82A U106G U132A
Solution: -1.35

Exercise: Report measured polymerase ribozyme fitness (log ratio); entry is C28A G60A
Solution: -2.44

Exercise: Report measured polymerase ribozyme fitness (log ratio); entry is C20G A118U
Solution: -3.53

Exercise: Report measured polymerase ribozyme fitness (log ratio); entry is G44C U106G C124G G135A
Solution: -0.579

Exercise: Report measured polymerase ribozyme fitness (log ratio); entry is C15U A50U C76U U78A
Solution: -3.61

Exercise: Report measured polymerase ribozyme fitness (log ratio); entry is A46C C102A G120U C123A
Solution: -2.45

Exercise: Report measured polymerase ribozyme fitness (log ratio); entry is A18G G127U
Solution: -4.06

Exercise: Report measured polymerase ribozyme fitness (log ratio); entry is G71U C79G
Solution: -2.2

Exercise: Report measured polymerase ribozyme fitness (log ratio); entry is C8A A18G U109C C115A
Solution: -5.42

Exercise: Report measured polymerase ribozyme fitness (log ratio); entry is A26G G77U
Solution: -2.79

Exercise: Report measured polymerase ribozyme fitness (log ratio); entry is U9C U54A C101U
Solution: 0.158

Exercise: Report measured polymerase ribozyme fitness (log ratio); entry is G69A
Solution: -2.44

Exercise: Report measured polymerase ribozyme fitness (log ratio); entry is C53G A119U G127C
Solution: -1.2

Exercise: Report measured polymerase ribozyme fitness (log ratio); entry is A2U C3G C4U C72U G77A U92G A118U C123G G128A
Solution: -3.1

Exercise: Report measured polymerase ribozyme fitness (log ratio); entry is C53A C99A G117C A118G
Solution: -7.29

Exercise: Report measured polymerase ribozyme fitness (log ratio); entry is U54C C56A C85G G117A
Solution: -4.42

Exercise: Report measured polymerase ribozyme fitness (log ratio); entry is G39A A46U U106A
Solution: -2.02

Exercise: Report measured polymerase ribozyme fitness (log ratio); entry is G36C C40A
Solution: -1.42

Exercise: Report measured polymerase ribozyme fitness (log ratio); entry is C20A G42C G48U G122U
Solution: -4.09

Exercise: Report measured polymerase ribozyme fitness (log ratio); entry is C8G A37U C49U U54G U133G
Solution: -1.23

Exercise: Report measured polymerase ribozyme fitness (log ratio); entry is G35A C85G U106G G120C
Solution: -4.02

Exercise: Report measured polymerase ribozyme fitness (log ratio); entry is A43U G69U A91C
Solution: 0.416

Exercise: Report measured polymerase ribozyme fitness (log ratio); entry is U55C G57U A66C
Solution: 0.353

Exercise: Report measured polymerase ribozyme fitness (log ratio); entry is A16G G61U A66U U81A U106A U116C
Solution: -0.459

Exercise: Report measured polymerase ribozyme fitness (log ratio); entry is C72U C79A A83G C115G C123A U131G
Solution: -4.99

Exercise: Report measured polymerase ribozyme fitness (log ratio); entry is C114A A121U
Solution: -1.18

Exercise: Report measured polymerase ribozyme fitness (log ratio); entry is C8G A43U C88G G110U G120U
Solution: -4.09

Exercise: Report measured polymerase ribozyme fitness (log ratio); entry is C13U G19U G52U
Solution: -2.98

Exercise: Report measured polymerase ribozyme fitness (log ratio); entry is U9C G48U G52C G117U
Solution: -2.68

Exercise: Report measured polymerase ribozyme fitness (log ratio); entry is C20G G51A G61A C85G A121U
Solution: -7.66

Exercise: Report measured polymerase ribozyme fitness (log ratio); entry is G113C U125C
Solution: -2.26

Exercise: Report measured polymerase ribozyme fitness (log ratio); entry is U38A A43U C53U U112C G135C
Solution: -0.362

Exercise: Report measured polymerase ribozyme fitness (log ratio); entry is C3A C34U C53A C89A C123G
Solution: -5.9

Exercise: Report measured polymerase ribozyme fitness (log ratio); entry is A2G C12G C20A G69U U78C U130C
Solution: -1.63

Exercise: Report measured polymerase ribozyme fitness (log ratio); entry is C11G C73U U96A
Solution: -0.543
